# system name: T1, GHRH receptor (membrane receptors of human anterior pituitary cells) (human) (UniProt Q02643)
# T1 sequence (looked up): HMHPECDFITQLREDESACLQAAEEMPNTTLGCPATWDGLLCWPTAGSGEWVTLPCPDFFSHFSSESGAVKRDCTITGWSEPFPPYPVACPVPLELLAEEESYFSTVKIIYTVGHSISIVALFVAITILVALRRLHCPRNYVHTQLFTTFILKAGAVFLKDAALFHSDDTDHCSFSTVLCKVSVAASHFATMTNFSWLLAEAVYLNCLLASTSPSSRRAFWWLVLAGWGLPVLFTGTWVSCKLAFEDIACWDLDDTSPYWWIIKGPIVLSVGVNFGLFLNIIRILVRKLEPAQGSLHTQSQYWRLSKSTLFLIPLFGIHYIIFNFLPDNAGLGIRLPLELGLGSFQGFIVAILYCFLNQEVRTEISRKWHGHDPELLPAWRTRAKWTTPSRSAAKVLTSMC
# test protocol: competition with 125I-JV-1-42, human pituitary membranes
Non-standard residues stand in square brackets, D forms with d. No end group written: not given here. *: point of attachment. NMeY = CN[C@@H](Cc1ccc(O)cc1)C(=O)O; Agmatine = N=C(N)NCCCCN*; Nle = CCCC[C@H](N)C(=O)O; Orn = NCCC[C@H](N)C(=O)O; Abu = CC[C@H](N)C(=O)O
Please assign 0 whenever IC50 is at or above 1 nM, and 1 whenever it is below.

In: Identify whether the binder YADAIFTNSYRKVLGQLSARKLLQDIMSRQ (peptide, from a related filing, N-Me-Tyr^1; Abu^2; Orn^12; Abu^15; Orn^21; Nle^27; Gab^30 (in place of Gln^30); C-terminal -NH2) [P-25503 [N-Me-Tyr^1, Abu^2, Orn^12, Abu^15, Orn^21, Nle^27, Gab^30]hGHRH(1-30)NH2] records IC50 below 1 nM.
Out: 0

In: Identify whether the binder [NMeY]ADAIFTQSYR[Orn]VL[Abu]QLSAR[Orn]LLQDI[Nle]D[Agmatine] (peptide, from a related filing, not fully specified (C-terminus)) [P-20356 [N-Me-Tyr^1, Gln^8, Orn^12, Abu^15, Orn^21, Nle^27, Asp^28, Agm^29]hGHRH(1-29)NH2] records IC50 below 1 nM.
Out: 1

In: Identify whether the binder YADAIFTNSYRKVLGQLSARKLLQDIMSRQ (peptide, from a related filing, N-Me-Tyr^1; Orn^12; Abu^15; Orn^21; Nle^27; Gab^30 (in place of Gln^30); C-terminal -NH-CH3) [P-27415 [N-Me-Tyr^1, Orn^12, Abu^15, Orn^21, Nle^27, Gab^30]hGHRH(1-30)NH-CH3] records IC50 below 1 nM.
Out: 0

In: Identify whether the binder [NMeY]ADAIFTQSYR[Orn]VL[Abu]QLSAR[Orn]LLQDI[Nle]DR-NHMe (peptide, from a related filing) [P-27406 [N-Me-Tyr^1, Gln^8, Orn^12, Abu^15, Orn^21, Nle^27, Asp^28]hGHRH(1-29)NH-CH3] records IC50 below 1 nM.
Out: 1

In: Identify whether the binder [NMeY]ADAIFTQSYR[Orn]VL[Abu]QLSAR[Orn]LLQDI[Nle]SR-NHMe (peptide, from a related filing) [P-27405 [N-Me-Tyr^1, Gln^8, Orn^12, Abu^15, Orn^21, Nle^27]hGHRH(1-29)NH-CH3] records IC50 below 1 nM.
Out: 0
